biological target: Metallo-beta-lactamase type 2 (Serratia marcescens); test: Inhibition of Serratia marcescens IMP-1 expressed in Escherichia coli BL21 (DE3) using cephalothin as substrate preincubated for 5 mins followed by substrate addition relative to citrate
Sequence (P52699 whole entry): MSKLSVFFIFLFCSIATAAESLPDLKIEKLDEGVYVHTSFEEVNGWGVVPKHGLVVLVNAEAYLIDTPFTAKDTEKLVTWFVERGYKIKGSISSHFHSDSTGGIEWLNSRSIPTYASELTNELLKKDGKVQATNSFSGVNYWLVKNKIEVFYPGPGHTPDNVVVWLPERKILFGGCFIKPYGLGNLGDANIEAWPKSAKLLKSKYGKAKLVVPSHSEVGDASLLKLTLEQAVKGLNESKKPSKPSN
pIC50: −log10 of the molar value.

Compound	pIC50
O=C(O)CC(O)(CC(=O)OCc1ccccc1)C(=O)O (stereo unspecified)	< 2.30

Data origin: ChEMBL document CHEMBL5230146
